FYI, the data here is from PubChem BioAssay (Tox21).

# Procedure Details: qHTS assay to identify small molecule HDAC inhibitors - cell viability counter screen (AID 1259365); note: nearly all actives have a fitted effect of over 50% in size
# Test Conditions: HCT-116 viability, CellTiter-Glo ATP luminescence, 2 h; series mostly up to 92.4 µM
Calls of active or inactive are those of the source. Calls come from the whole dose curve; as a rule, active = well fitted cell-killing curve with a large enough effect in the repeat runs; inconclusive = weak or mixed curves, or effect the other way; inactive = flat fitted curve, though single readings scatter.
Experimental Endpoint: activity change, negative = cytotoxicity

Please review the following examples before continuing.
Compound	Value Measured
Cc1cc(C)c(NC(=O)CN(CC(=O)O)CC(=O)O)c(C)c1Br	inactive
COc1cccc(OC)c1	inactive
c1cc(CN2CCCCC2)cc(OCCCNc2nc3ccccc3s2)c1	inactive
CN(C)C(=O)C(CCN1CCC(O)(c2ccc(Cl)cc2)CC1)(c1ccccc1)c1ccccc1	inactive

Ask: If you can, please state the reported activity change, negative = cytotoxicity value of CC(C=O)Cc1ccc(C(C)C)cc1 (configuration not stated) .
Reply: inactive

Ask: I would be grateful if you could share the reported activity change, negative = cytotoxicity for CCCc1ccc(N)cc1 .
Reply: inactive

Ask: State the recorded activity change, negative = cytotoxicity for this entry: O=S(=O)(c1cccc2cnccc12)N1CCCNCC1
Reply: inactive

Ask: Using the record for Cc1cc(C)cc(OCC2CNC(=O)O2)c1 (configuration not stated) , report its activity change, negative = cytotoxicity.
Reply: inactive

Ask: If you can, please state the reported activity change, negative = cytotoxicity value of O=C(CCOCCOCCOCCOCCC(=O)Nc1c(I)cc(I)c(C(=O)O)c1I)Nc1c(I)cc(I)c(C(=O)O)c1I .
Reply: inactive

Ask: If you can, please state the reported activity change, negative = cytotoxicity value of NS(=O)(=O)c1cc2c(cc1C(F)(F)F)NC(Cc1ccccc1)NS2(=O)=O (configuration not stated) .
Reply: inactive

Ask: Recorded activity change, negative = cytotoxicity for CCCCCCC(=O)OCC , please?
Reply: inactive

Ask: Return reported activity change, negative = cytotoxicity; argument: CCN1CCN(c2cc3c(cc2F)c(=O)c(C(=O)O)cn3C2CC2)CC1
Reply: inactive
